- Tested on: M. tuberculosis H37Rv growth inhibition, 7H9 media
- assay explanation: M. tuberculosis growth inhibition, HTS (AID 449762);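 further: bacterial growth assessed after seven days of incubation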
- experimental setup: measured here: IC90 growth inhibition
Results filed as inconclusive are left out. Where a SMILES comes first, the peptide text is derived from it. [ ]: non-standard residue; d: D form. The star is where a group is joined. ξ: configuration not given here. ξF = NC(Cc1ccccc1)C(=O)O; Cbz = O=C(OCc1ccccc1)*
Consider the following compounds and their measured log10(IC90) readings.
observed property: log10(IC90) (log10 of the value in µM)

{"compound": "O=c1c(Cl)c2oc3ccccc3nc-2c2ccccc12", "log10(IC90)": 1.08}
{"compound": "Cc1nn2c(NCc3ccccn3)cc(C(C)C)nc2c1-c1ccccc1", "log10(IC90)": 0.52}
{"compound": "O=C1C(SCCO)=C(SCCO)C(=O)c2ccccc21", "log10(IC90)": 0.83}
{"compound": "Cn1cnc([N+](=O)[O-])c1Sc1ccc(Br)cc1", "log10(IC90)": 1.23}
{"compound": "CC1(C)CC(NC(=O)c2ccc(Cl)c(S(=O)(=O)N(Cc3ccccc3)c3ccccc3)c2)CC(C)(C)N1", "log10(IC90)": 1.45}
{"compound": "CCOC(=O)c1ccc(NC(=O)Cn2ncc(Cl)c(Cl)c2=O)cc1", "log10(IC90)": -0.36}
{"compound": "O=C(CCl)Nc1sccc1C(=O)c1ccccc1", "log10(IC90)": 0.09}
{"compound": "CCOC(=O)c1cnc(SC2CCc3ccccc3C2=O)nc1N (stereo not given)", "log10(IC90)": 1.95}
{"compound": "Oc1ccc(F)c2cccnc12", "log10(IC90)": 0.84}
{"compound": "COc1cccc(C2C3=C(N=c4s/c(=C\\c5cccc(O)c5)c(=O)n42)c2ccccc2CC3)c1OC (stereo not given)", "log10(IC90)": 1.43}
{"compound": "CN1CCN(c2c(F)cc3c(=O)c(C(=O)O)cn4c3c2OCN4C)CC1", "log10(IC90)": -0.10}
{"compound": "C/C(=C1/C(=O)N(c2ccc([N+](=O)[O-])cc2)N=C1c1ccccc1)N(C)C", "log10(IC90)": 1.50}
{"compound": "COc1ccc([C@H]2CC(=O)C=C(c3ccc4c5c(cccc35)CC4)C2)cc1", "log10(IC90)": 1.36}
{"compound": "O=C(CSC(=S)N1CCCC1)c1cc(Br)cc(Br)c1O", "log10(IC90)": 1.56}
{"compound": "O=C(N/N=C/c1cccc2cccnc12)[C@H]1C[C@@H]1c1ccccc1", "log10(IC90)": 1.54}
{"compound": "Cc1cc(C)c(C(N)=O)c(SCC(=O)c2ccc(Cl)cc2)n1", "log10(IC90)": 1.80}
{"compound": "COc1ccccc1-n1cc2c([N+](=O)[O-])cc([N+](=O)[O-])cc2n1", "log10(IC90)": 0.50}
{"compound": "COc1ccc(-c2cc3nc(CCl)[nH]c(=O)c3s2)cc1", "log10(IC90)": 1.16}
{"compound": "Cc1cc(C)c(C)c(N=Nc2nc3ccccc3n2C)c1C", "log10(IC90)": 0.84}
{"compound": "CC(C)(C)OC(=O)NCCCCCc1nnc(SCc2ccc(F)cc2)o1", "log10(IC90)": 1.68}
{"compound": "CNc1ccccc1C(=O)OC(C)C(=O)Nc1ccc(Cl)cn1 (stereo not given)", "log10(IC90)": 1.71}
{"compound": "CCCn1nc(C(=O)NNC(=O)c2ccc(C)c(C)c2)c2ccccc2c1=O", "log10(IC90)": 1.20}
{"compound": "Cc1ccc(C)c(-c2nnc(NC(=O)C3=COCCO3)o2)c1", "log10(IC90)": 1.09}
{"compound": "O=C(OCc1ccccc1F)c1cnc(Cl)c(Cl)c1", "log10(IC90)": 1.70}
{"compound": "CCN(CC)c1nc(NN)nc(Nc2ccc(C)c(Cl)c2)n1", "log10(IC90)": 0.80}
{"compound": "O=C(NCC1CC1)c1cc([N+](=O)[O-])cc([N+](=O)[O-])c1", "log10(IC90)": 0.81}
{"compound": "Nc1c(C(=O)NC2CCCCC2)nsc1C(=O)OCC(=O)NC1CCCCC1", "log10(IC90)": 0.78}
{"compound": "N#Cc1c(SCC(N)=O)nsc1SCc1ccccc1Cl", "log10(IC90)": 1.54}
{"compound": "COc1ccc(CN2CCCC(C(=O)c3ccc(SC)cc3)C2)cc1Cn1cccn1 (stereo not given)", "log10(IC90)": 1.42}
{"compound": "Cc1oc2c(c1C(=O)NCc1cccnc1)C(=O)c1ccccc1C2=O", "log10(IC90)": 1.14}
{"compound": "COC(=O)CSc1nnc(CNc2ccc(Cl)cc2)n1-c1ccccc1", "log10(IC90)": 1.57}
{"compound": "COc1ccc(C[C@H]2CN3C(=NC[C@H]3Cc3ccccc3)N2CCNC(=O)CCC2CCCCC2)cc1", "log10(IC90)": 1.33}
{"compound": "CCOC(=O)CNC(=O)C(Cc1ccccc1)NC(=O)OCc1ccccc1 (stereo not given) (Cbz-[ξF]-Gly-OEt)", "log10(IC90)": 0.53}
{"compound": "Nc1cc(Cl)c2nonc2c1[N+](=O)[O-]", "log10(IC90)": 0.82}
